- TARGET_SYSTEM: DCAF1 WD40 domain (residues 1077-1390) (Homo sapiens, UniProt Q9Y4B6)
- Construct: DCAF1 WD40 domain (residues 1077-1390)
- Sequence (Q9Y4B6 1077-1390): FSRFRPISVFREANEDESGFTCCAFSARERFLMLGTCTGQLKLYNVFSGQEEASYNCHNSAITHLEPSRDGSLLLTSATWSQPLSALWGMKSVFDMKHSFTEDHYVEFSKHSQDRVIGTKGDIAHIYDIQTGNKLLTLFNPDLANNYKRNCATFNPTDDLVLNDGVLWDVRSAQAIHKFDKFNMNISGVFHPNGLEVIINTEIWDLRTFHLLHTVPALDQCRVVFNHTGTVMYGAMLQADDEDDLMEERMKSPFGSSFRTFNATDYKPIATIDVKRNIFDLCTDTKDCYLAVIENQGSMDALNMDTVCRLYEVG
- MEASUREMENT_DESCRIPTION: DCAF1 binding assay by SPR (Biacore 8K+), DCAF1-3 KD
- SETUP_CONDITIONS: 25 °C, read-out: DCAF1-3 SPR (KD)
VALUE_KIND: Kd

Query: Look up Kd: Fc1cccc(N2CCCC(Nc3nccc(N4CCOCC4)n3)C2)c1 (stereo not drawn) [I-22]
Reply: > 200 µM

Query: Look up Kd: NCCCCCCCCCCCC1CCN(c2ccnc(N3CC[C@@H]4[C@H]3CCCN4c3cccc(F)c3)c2)CC1 [I-721]
Reply: < 10 µM

Query: Look up Kd: C=CC(=O)NC1CCN(c2ccnc(N[C@@H]3CCCN(c4cccc(F)c4)C3)c2)CC1 [I-451]
Reply: > 200 µM

Query: Look up Kd: Cc1c(F)c(Cl)cc(F)c1-c1[nH]ncc1C(=O)N[C@@H](CC(N)=O)c1cccc(Cl)c1 [I-1043]
Reply: < 10 µM

Query: Look up Kd: O=C(O)[C@@H]1[C@H](Nc2cc(N3CCOCC3)ccn2)CCCN1c1cccc(F)c1 [I-287]
Reply: > 200 µM

Query: Look up Kd: Cc1ccccc1[C@H](CC(N)=O)NC(=O)c1cn[nH]c1-c1ccccc1F [I-105]
Reply: < 10 µM

Query: Look up Kd: NC(=O)C[C@H](NC(=O)c1cn[nH]c1-c1ccccc1F)c1cccc(C(N)=O)c1 [I-353]
Reply: > 200 µM

Query: Look up Kd: Cc1c(F)ccc(F)c1-c1[nH]ncc1C(=O)N[C@@H](CC(N)=O)c1ccc(F)c(Cl)c1 [I-819]
Reply: 10 to 100 µM

Query: Look up Kd: CCN1CCN(c2cc(N[C@@H]3CCCN(c4cccc(F)c4)C3)ncn2)CC1 [I-375]
Reply: > 200 µM

Query: Look up Kd: Cc1sc2c(c1C)C(c1ccc(Cl)cc1)=N[C@@H](CC(=O)NCCOCCOCCOCCOCCOCCOCCOCCn1cc(C(=O)N[C@@H](CC(N)=O)c3cccc(Cl)c3)c(-c3ccccc3F)n1)c1nnc(C)n1-2 [I-888]
Reply: > 200 µM

Query: Look up Kd: Fc1cccc(N2CCC[C@@H](Cc3cc(N4CCOCC4)ccn3)C2)c1 [I-87]
Reply: > 200 µM

Query: Look up Kd: C[C@@H]1CC[C@H](O)CN1c1ccnc(N2CC[C@@H]3[C@H]2CCCN3c2cccc(F)c2)c1 [I-824]
Reply: < 10 µM

Query: Look up Kd: Cc1ccc(Cl)cc1[C@@H](CC(N)=O)NC(=O)c1cn[nH]c1-c1ccccc1F [I-584]
Reply: 10 to 100 µM

Query: Look up Kd: CC(C)CNc1ccc(N2CCC[C@@H](Nc3cc(N4CCOCC4)ccn3)C2)cc1 [I-693]
Reply: 10 to 100 µM

Query: Look up Kd: OCc1c(CN2CCCCC2)cccc1C1CCCN(c2cccc(F)c2)C1 (stereo not drawn) [I-981]
Reply: 10 to 100 µM

Query: Look up Kd: c1cc(N2CCOCC2)cc(NC2CCCN(c3cnn[nH]3)C2)n1 (stereo not drawn) [I-486]
Reply: > 200 µM

Query: Look up Kd: c1ccc2ncc(N3CCC[C@@H](Nc4cc(N5CCOCC5)ncn4)C3)cc2c1 [I-399]
Reply: > 200 µM

Query: Look up Kd: c1ccc2c(N3CCC[C@@H](Nc4nccc(N5CCOCC5)n4)C3)cccc2c1 [I-52]
Reply: > 200 µM
